read-out: Vascular cell adhesion molecule 1 (VCAM1), VCAM1 (gene 7412); assay: BSK_4H_VCAM1: BioMAP Diversity Plus: 4H Assay for Vascular cell adhesion molecule 1 (VCAM1) Biomarker Activity (AID 2283033); details: primary human endothelial cells (HUVEC); actives raise or lower the signal
Activity calls are given as the source filed them. Rule for the calls: active = hit-call score of the fitted dose curve at least 0.9, where 1 is the maximum; inactive = score below 0.9.
MEASURE: AC50

Sample answers from the record:
O=C=NC1CCC(CC2CCC(N=C=O)CC2)CC1 (stereo not drawn)    inactive
COC(=O)c1ccc(C)cc1    inactive
OC[C@H]1O[C@H](O[C@]2(CCl)O[C@H](CCl)[C@@H](O)[C@@H]2O)[C@H](O)[C@@H](O)[C@H]1Cl    inactive
CCn1c2ccccc2c2cc(N)ccc21    inactive
O=C(O)c1cn(-c2ccc(F)cc2)c2cc(N3CCNCC3)c(F)cc2c1=O    inactive
C=C(C)C(=O)O[C@H]1C[C@@H]2CC[C@@]1(C)C2(C)C    10.1 µM (active)
CC1CCC(C(C)CS)CC1S (stereo not drawn)    29.1 µM (active)
CCCCCCCCCCCCCCCCCC(=O)OCC(CC)CCCC (stereo not drawn)    inactive
CCCCCCCCCC=O    inactive
CNC[C@H](O)c1cccc(O)c1    inactive

*Q* Would you kindly share the measured AC50 for CC(=O)O[C@]1(C(C)=O)CC[C@H]2[C@@H]3C[C@H](C)C4=CC(=O)CC[C@]4(C)[C@H]3CC[C@@]21C ?
*A* inactive

*Q* Quick one: AC50 for CCCCC/C=C/C=C/C=O ?
*A* 33.3 µM (active)
